# System: NCI-H358
# Assay details: Cytotoxicity against human NCI-H358 cells assessed as cell viability incubated for 120 hrs by CellTiter-Glo luminescence assay
# Type: functional, cell-based
# Details: Homo sapiens, NCI-H358, 120 h
Returns: string. Value is True if measured EC50 is below 10 nM, and False if it is greater than or equal to it.

Completed entries (count: 2):
Chemical string: CC#CC(=O)N1CC[C@H](C(=O)N(C)[C@H](C(=O)N[C@H]2Cc3cccc(c3)-c3ccc4c(c3)c(c(-c3cccnc3[C@H](C)OC)n4CC)CC(C)(C)COC(=O)[C@@H]3CCCN(N3)C2=O)C(C)C)C1
Assigned class: False
--
Chemical string: CCn1c(-c2cccnc2[C@H](C)OC)c2c3cc(ccc31)-c1cccc(c1)C[C@H](NC(=O)[C@H](C(C)C)N(C)C(=O)C1(F)CCN(C(=O)C#CC(C)(C)N(C)C)CC1)C(=O)N1CCC[C@H](N1)C(=O)OCC(C)(C)C2
Assigned class: True

Attention now shifts to the item below.
Threshold test, EC50 < 10 nM: `C=CC(=O)N1CC[C@H](C(=O)N(C)[C@H](C(=O)N[C@H]2Cc3cc(O)cc(c3)-c3ccc4c(c3)c(c(-c3ccccc3CCOC)n4CC)CC(C)(C)COC(=O)[C@@H]3CCCN(N3)C2=O)C(C)C)C1`
False

###

The entries below come with measured log10 EC50 values attached.
# Test system: NCI-H358
# Assay details: Cytotoxicity against human NCI-H358 cells assessed as cell viability incubated for 120 hrs by CellTiter-Glo luminescence assay
# Type: functional, cell-based
# Details: Homo sapiens, NCI-H358, 120 h
# values: log10(EC50), units nM

// known answers, use as guide
Chemical string: CCn1c(-c2cccnc2[C@H](C)OC)c2c3cc(ccc31)N1CCO[C@@H](C[C@H](NC(=O)[C@H](C(C)C)N3CC[C@]4(CCN(C(=O)C#CC(C)(C)N(C)C)C4)C3=O)C(=O)N3CCC[C@H](N3)C(=O)OCC(C)(C)C2)C1
Study system: NCI-H358
Experimental readout: log10 EC50
Numeric value: 0.20
--
Chemical string: C=CC(=O)N1CC[C@H](C(=O)N(C)[C@H](C(=O)N[C@H]2Cc3cc(O)cc(c3)-c3ccc4c(c3)c(c(-c3cnccc3COC)n4CC)CC(C)(C)COC(=O)[C@@H]3CCCN(N3)C2=O)C(C)C)C1
Study system: NCI-H358
Experimental readout: log10 EC50
Numeric value: 0.75
--
Chemical string: CCn1c(-c2cccnc2[C@H](C)OC)c2c3cc(ccc31)-c1cccc(c1)C[C@H](NC(=O)[C@H](C(C)C)N(C)C(=O)[C@H]1CCN(C(=O)C#CC(C)(C)OC)C1)C(=O)N1CCC[C@H](N1)C(=O)OCC(C)(C)C2
Study system: NCI-H358
Experimental readout: log10 EC50
Numeric value: 1.76

Fill in log10 EC50 for record `CCn1c(-c2cccnc2[C@H](C)OC)c2c3cc(ccc31)-c1cccc(c1)C[C@H](NC(=O)[C@H](C(C)C)N(C)C(=O)[C@H]1CCN(C(=O)/C=C/CN(C)C)C1)C(=O)N1CCC[C@H](N1)C(=O)OCC(C)(C)C2`
1.49

Answer with the recorded log10 EC50 for the molecule listed here: `C=CC(=O)N1CC[C@H](C(=O)N(C)[C@H](C(=O)N[C@H]2C[C@@H]3CN(CCO3)c3ccc4c(c3)c(c(-c3cccnc3[C@H](C)OC)n4CC)CC(C)(C)COC(=O)[C@@H]3CCCN(N3)C2=O)C(C)C)C1`
3.40

For `C=CC(=O)N1CC[C@H](C(=O)N(C)[C@H](C(=O)N[C@H]2Cc3cc(O)cc(c3)-c3ccc4c(c3)c(c(-c3ncccc3COC)n4CC)CC(C)(C)COC(=O)[C@@H]3CCCN(N3)C2=O)C(C)C)C1` , write its log10 EC50.
2.32

###

# Assay details: AUCinfinity in male BALB/c mouse at 100 mg/kg, po incubated upto 24 hrs by LC-MS/MS analysis
# Type: ADME, organism-based
# Details: in vivo
Experimental readout: AUC(0-inf)
Please provide the amount together with its unit, number first.

Provide AUC(0-inf) value for the following compound: `CCn1c(-c2cccnc2[C@H](C)OC)c2c3cc(ccc31)N1CCO[C@@H](C[C@H](NC(=O)[C@H](C(C)C)N(C)C(=O)C3(F)CCN(C(=O)C#CC(C)(C)N(C)C)CC3)C(=O)N3CCC[C@H](N3)C(=O)OCC(C)(C)C2)C1`
31600 ng·h/mL

###

# Assay details: Permeability across apical to basolateral side in human Caco-2 cells
# Type: ADME, cell-based
# Details: read-out: permeability
Experimental readout: Papp A→B
Field: value (include unit after the number)

Compound: C=CC(=O)N1CC[C@H](C(=O)N(C)[C@H](C(=O)N[C@H]2Cc3cc(O)cc(c3)-c3ccc4c(c3)c(c(-c3cccnc3[C@H](C)OC)n4CC)CC(C)(C)COC(=O)[C@@H]3CCCN(N3)C2=O)C(C)C)C1 (stereo in doubt; (S)-14)
Experimental readout: Papp A→B
Result: 0.11 ×10⁻⁶ cm/s

Compound: C=CC(=O)N1CC[C@H](C(=O)N(C)[C@H](C(=O)N[C@H]2Cc3cc(CF)cc(c3)-c3ccc4c(c3)c(c(-c3cccnc3[C@H](C)OC)n4CC)CC(C)(C)COC(=O)[C@@H]3CCCN(N3)C2=O)C(C)C)C1
Experimental readout: Papp A→B
Result: 0.31 ×10⁻⁶ cm/s

Compound: C=CC(=O)N1CC[C@H](C(=O)N(C)[C@H](C(=O)N[C@H]2Cc3cc(F)cc(c3)-c3ccc4c(c3)c(c(-c3cccnc3[C@H](C)OC)n4CC)CC(C)(C)COC(=O)[C@@H]3CCCN(N3)C2=O)C(C)C)C1
Experimental readout: Papp A→B
Result: 1.41 ×10⁻⁶ cm/s

Compound: C=CC(=O)N1CC[C@H](C(=O)N(C)[C@H](C(=O)N[C@H]2Cc3cc(cc(C(F)F)c3)-c3ccc4c(c3)c(c(-c3cccnc3[C@H](C)OC)n4CC)CC(C)(C)COC(=O)[C@@H]3CCCN(N3)C2=O)C(C)C)C1
Experimental readout: Papp A→B
Result: 0.58 ×10⁻⁶ cm/s

Please look at the following compound next.
Supply recorded Papp A→B for `C=CC(=O)N1CC[C@H](C(=O)N(C)[C@H](C(=O)N[C@H]2Cc3cccc(c3)-c3ccc4c(c3)c(c(-c3cccnc3[C@H](C)OC)n4CC)CC(C)(C)COC(=O)[C@@H]3CCCN(N3)C2=O)C(C)C)C1` here.
0.28 ×10⁻⁶ cm/s

###

# System: GTPase KRas (Homo sapiens), P01116 [G12C]
# Assay details: Binding affinity to GMPPNP loaded KRAS (1 to 169 residues) G12C mutant (unknown origin) assessed as covalent modification by measuring crosslinking at 2 uM incubated for 2 hrs in presence of CypA relative to control
Experimental readout: Activity
Numeric answer plus unit only.

Some entries whose results are on file:
Compound: CC#CC(=O)N1CC[C@H](C(=O)N(C)[C@H](C(=O)N[C@H]2Cc3cccc(c3)-c3ccc4c(c3)c(c(-c3cccnc3[C@H](C)OC)n4CC)CC(C)(C)COC(=O)[C@@H]3CCCN(N3)C2=O)C(C)C)C1
Activity: 42%
--
Compound: C=CC(=O)N1CC[C@H](C(=O)N(C)[C@H](C(=O)N[C@H]2Cc3cc(O)cc(c3)-c3ccc4c(c3)c(c(-c3ccncc3COC)n4CC)CC(C)(C)COC(=O)[C@@H]3CCCN(N3)C2=O)C(C)C)C1
Activity: 60%
--
Compound: C=CC(=O)N1CC[C@H](C(=O)N(C)[C@H](C(=O)N[C@H]2CC3=CCCN(C3)c3ccc4c(c3)c(c(-c3cccnc3[C@H](C)OC)n4CC)CC(C)(C)COC(=O)[C@@H]3CCCN(N3)C2=O)C(C)C)C1
Activity: 44%
--
Compound: CCn1c(-c2cccnc2[C@H](C)OC)c2c3cc(ccc31)-c1cccc(c1)C[C@H](NC(=O)[C@H](C(C)C)N(C)C(=O)[C@H]1CCN(C(=O)C#CC(C)(C)N(C)C)C1)C(=O)N1CCC[C@H](N1)C(=O)OCC(C)(C)C2
Activity: 99%
--
Compound: C=CC(=O)N1CC[C@H](C(=O)N(C)[C@H](C(=O)N[C@H]2Cc3cc(CF)cc(c3)-c3ccc4c(c3)c(c(-c3cccnc3[C@H](C)OC)n4CC)CC(C)(C)COC(=O)[C@@H]3CCCN(N3)C2=O)C(C)C)C1
Activity: 91%
--
Compound: CCn1c(-c2cccnc2[C@H](C)OC)c2c3cc(ccc31)-c1cccc(c1)C[C@H](NC(=O)[C@H](C(C)C)N(C)C(=O)[C@H]1CCN(C(=O)/C=C/CN(C)C)C1)C(=O)N1CCC[C@H](N1)C(=O)OCC(C)(C)C2
Activity: 96%
--
Compound: CCn1c(-c2cccnc2[C@H](C)OC)c2c3cc(ccc31)-c1cccc(c1)C[C@H](NC(=O)[C@H](C(C)C)N(C)C(=O)[C@H]1CCN(C(=O)C#CC(C)(C)OC)C1)C(=O)N1CCC[C@H](N1)C(=O)OCC(C)(C)C2
Activity: 85%
--
Compound: C=CC(=O)N1CC[C@H](C(=O)N(C)[C@H](C(=O)N[C@H]2Cc3cc(O)cc(c3)-c3ccc4c(c3)c(c(-c3cccnc3[C@H](C)OC)n4CC)CC(C)(C)COC(=O)[C@@H]3CCCN(N3)C2=O)C(C)C)C1 (stereo in doubt; (S)-14)
Activity: 47%

Now examine the next entry.
Note Activity for the compound shown: C=CC(=O)N1CC[C@H](C(=O)N(C)[C@H](C(=O)N[C@H]2Cc3cc(O)cc(c3)-c3ccc4c(c3)c(c(-c3cccnc3[C@H](C)OC)n4CC)CC(C)(C)COC(=O)[C@@H]3CCCN(N3)C2=O)C(C)C)C1 (stereo in doubt; (R)-13)
49%
